Where these numbers come from: the supplement of paper PMC12669032

System: Bacteroides dorei
Protocol text: growth AUC relative to DMSO control (median of replicates) (fraction); higher = more growth (less inhibition), active = hit call of the paper
Test settings: 20 µM; 24 h
// reported growth AUC per item
Note: the reply should be a number with no unit written.

Examples with their reported growth AUC follow.
COC(=O)c1cc(Oc2ccc(Cl)cc2Cl)ccc1[N+](=O)[O-]	0.973
N#CCNC(=O)c1cnccc1C(F)(F)F	1
CCOC(=O)C(C)OC(=O)c1cc(Oc2ccc(C(F)(F)F)cc2Cl)ccc1[N+](=O)[O-] (stereo unspecified)	0.985
C[n+]1ccc(-c2cc[n+](C)cc2)cc1.O.[Cl-].[Cl-]	0.996
Cc1cccc(C)c1N(Cn1cccn1)C(=O)CCl	0.974

Problem: Please supply the value of reported growth AUC for the item "CC1=C(C(=O)Nc2ccccc2)S(=O)(=O)CCO1"
Result: 0.977
